- Assayed target: Peroxisome proliferator-activated receptor alpha (Mus musculus, UniProt P23204)
- Sequence (P23204 whole entry): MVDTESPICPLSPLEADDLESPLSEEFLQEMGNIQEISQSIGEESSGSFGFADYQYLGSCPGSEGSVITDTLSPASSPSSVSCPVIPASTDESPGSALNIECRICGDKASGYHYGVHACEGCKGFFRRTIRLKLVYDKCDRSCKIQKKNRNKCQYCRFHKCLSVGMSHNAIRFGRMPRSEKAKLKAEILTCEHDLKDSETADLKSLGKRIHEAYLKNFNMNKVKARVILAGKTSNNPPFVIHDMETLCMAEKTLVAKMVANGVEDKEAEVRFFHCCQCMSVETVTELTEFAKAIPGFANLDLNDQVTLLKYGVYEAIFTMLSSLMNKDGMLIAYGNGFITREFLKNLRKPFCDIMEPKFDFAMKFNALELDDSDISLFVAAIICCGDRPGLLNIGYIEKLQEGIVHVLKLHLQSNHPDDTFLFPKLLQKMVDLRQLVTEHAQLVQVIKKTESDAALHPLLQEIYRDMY
- Test: Agonist activity against PPAR alpha
pEC50: −log10 of the molar value.
Readout label: pEC50

Query (compound): CC(C)(Oc1cccc(CCCN(Cc2ccc(C(F)(F)F)cc2C(F)(F)F)C(=O)Cc2ccc(C(F)(F)F)cc2)c1)C(=O)O ; field requested: pEC50
< 6.00

---

Examples of compounds with documented pEC50 follow.
- Assayed target: Peroxisome proliferator-activated receptor delta (Homo sapiens, UniProt Q03181)
- Sequence (Q03181 whole entry, the tested form may be a part): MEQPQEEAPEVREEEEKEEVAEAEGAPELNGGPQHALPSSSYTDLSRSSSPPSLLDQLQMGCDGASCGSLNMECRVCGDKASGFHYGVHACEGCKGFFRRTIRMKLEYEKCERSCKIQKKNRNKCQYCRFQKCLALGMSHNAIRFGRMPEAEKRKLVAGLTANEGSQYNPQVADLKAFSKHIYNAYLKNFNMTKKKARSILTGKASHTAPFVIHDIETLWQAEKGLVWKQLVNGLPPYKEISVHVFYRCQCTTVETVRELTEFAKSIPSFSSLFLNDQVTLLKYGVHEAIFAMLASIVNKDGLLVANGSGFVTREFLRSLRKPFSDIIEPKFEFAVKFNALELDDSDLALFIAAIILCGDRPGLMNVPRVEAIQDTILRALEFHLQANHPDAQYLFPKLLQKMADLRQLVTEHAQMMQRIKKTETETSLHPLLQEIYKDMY
- Test: Agonistic transcriptional activity in CV-1 cells expressing Gal4-PPAR delta chimera
Worth noting: pEC50 values are minus log10 of concentrations stated in mol/L.

Consider the reported pEC50 for these compounds:
[[record]]
structure_smiles_string = "CCOC(=O)c1ccc(NC(=O)N(CCCc2cccc(OC(C)(C)C(=O)O)c2)Cc2ccc(C(F)(F)F)cc2C(F)(F)F)cc1"
assayed_target = "Peroxisome proliferator-activated receptor delta (Homo sapiens, UniProt Q03181)"
readout_label = "pEC50"
result = 6.80

[[record]]
structure_smiles_string = "CC(C)(Oc1cccc(CCCN(Cc2ccc(C(F)(F)F)cc2C(F)(F)F)C(=O)COc2ccc(Cl)c(Cl)c2)c1)C(=O)O"
assayed_target = "Peroxisome proliferator-activated receptor delta (Homo sapiens, UniProt Q03181)"
readout_label = "pEC50"
result = 7.03


Sample CC(C)(Oc1cccc(CCCN(Cc2ccc(C(F)(F)F)cc2C(F)(F)F)C(=O)Cc2ccc(C(F)(F)F)cc2)c1)C(=O)O — what was its pEC50?
7.72

---

- Test: Mean plasma concentration at a oral dose of 3 mg/kg in rat at 2.0 hr
- Type: ADME, organism-based
- Parameters: dose 3 mg/kg, route oral
Readout label: concentration at 2 h

// concentration at 2 h lookup, key: CC(C)(Oc1cccc(CCCN(Cc2ccc(C(F)(F)F)cc2C(F)(F)F)C(=O)Cc2ccc(C(F)(F)F)cc2)c1)C(=O)O
524 ng/mL

---

- Assayed target: Peroxisome proliferator-activated receptor gamma (Mus musculus, UniProt P37238)
- Sequence (P37238 whole entry): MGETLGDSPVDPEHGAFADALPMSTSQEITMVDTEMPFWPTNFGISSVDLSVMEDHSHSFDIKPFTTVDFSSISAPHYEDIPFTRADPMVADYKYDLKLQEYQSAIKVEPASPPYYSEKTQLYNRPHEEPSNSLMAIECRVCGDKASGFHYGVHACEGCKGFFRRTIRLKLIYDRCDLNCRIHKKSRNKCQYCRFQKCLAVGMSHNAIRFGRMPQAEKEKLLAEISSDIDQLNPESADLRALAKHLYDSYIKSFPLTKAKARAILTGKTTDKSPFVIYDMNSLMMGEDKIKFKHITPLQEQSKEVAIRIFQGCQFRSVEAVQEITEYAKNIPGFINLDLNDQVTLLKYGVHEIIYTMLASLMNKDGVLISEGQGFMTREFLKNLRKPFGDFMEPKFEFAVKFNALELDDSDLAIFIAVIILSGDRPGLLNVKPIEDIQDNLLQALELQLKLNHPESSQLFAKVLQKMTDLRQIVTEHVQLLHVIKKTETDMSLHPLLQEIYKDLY
- Test: Agonist activity against PPAR gamma
Readout label: EC50 (µM)
Report only the number, with the unit µM understood.

// query EC50 value for entry CC(C)(Oc1cccc(CCCN(Cc2ccc(C(F)(F)F)cc2C(F)(F)F)C(=O)Cc2ccc(C(F)(F)F)cc2)c1)C(=O)O
0.028

---

- Assayed target: Peroxisome proliferator-activated receptor gamma (Homo sapiens, UniProt P37231)
- Sequence (P37231 whole entry, the tested form may be a part): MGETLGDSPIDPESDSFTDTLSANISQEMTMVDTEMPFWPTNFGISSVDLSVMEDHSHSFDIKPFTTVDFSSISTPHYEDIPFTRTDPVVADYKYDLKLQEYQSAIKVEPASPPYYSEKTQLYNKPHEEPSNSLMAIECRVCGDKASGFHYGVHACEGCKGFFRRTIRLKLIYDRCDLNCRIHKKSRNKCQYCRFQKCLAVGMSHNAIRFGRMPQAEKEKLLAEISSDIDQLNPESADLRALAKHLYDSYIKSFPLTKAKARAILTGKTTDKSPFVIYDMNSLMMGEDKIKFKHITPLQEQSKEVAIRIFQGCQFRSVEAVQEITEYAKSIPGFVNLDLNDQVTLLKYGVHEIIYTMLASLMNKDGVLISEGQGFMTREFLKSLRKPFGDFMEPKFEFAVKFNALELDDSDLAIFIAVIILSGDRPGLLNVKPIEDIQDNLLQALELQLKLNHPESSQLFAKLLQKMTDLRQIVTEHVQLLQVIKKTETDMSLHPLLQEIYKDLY
- Test: Agonistic transcriptional activity in CV-1 cells expressing Gal4-PPAR gamma chimera
Form field: pEC50 (one value per entry).
As a rule, pEC50 stands for the negative log10 of the concentration, concentration in M.

[[record]]
structure_smiles_string = "CC(C)(Oc1cccc(CCCN(Cc2ccc(C(F)(F)F)cc2C(F)(F)F)C(=O)Cc2ccc(C(F)(F)F)cc2)c1)C(=O)O"
result = 8.40

[[record]]
structure_smiles_string = "CC(C)(Oc1cccc(CCCN(Cc2ccc(C(F)(F)F)cc2C(F)(F)F)C(=O)COc2ccc(Cl)c(Cl)c2)c1)C(=O)O"
result = 7.52


Now, please, on to the next compound.
Return reported pEC50; argument: CCOC(=O)c1ccc(NC(=O)N(CCCc2cccc(OC(C)(C)C(=O)O)c2)Cc2ccc(C(F)(F)F)cc2C(F)(F)F)cc1
9.30

---

- Assayed target: Peroxisome proliferator-activated receptor delta (Mus musculus, UniProt P35396)
- Sequence (P35396 whole entry): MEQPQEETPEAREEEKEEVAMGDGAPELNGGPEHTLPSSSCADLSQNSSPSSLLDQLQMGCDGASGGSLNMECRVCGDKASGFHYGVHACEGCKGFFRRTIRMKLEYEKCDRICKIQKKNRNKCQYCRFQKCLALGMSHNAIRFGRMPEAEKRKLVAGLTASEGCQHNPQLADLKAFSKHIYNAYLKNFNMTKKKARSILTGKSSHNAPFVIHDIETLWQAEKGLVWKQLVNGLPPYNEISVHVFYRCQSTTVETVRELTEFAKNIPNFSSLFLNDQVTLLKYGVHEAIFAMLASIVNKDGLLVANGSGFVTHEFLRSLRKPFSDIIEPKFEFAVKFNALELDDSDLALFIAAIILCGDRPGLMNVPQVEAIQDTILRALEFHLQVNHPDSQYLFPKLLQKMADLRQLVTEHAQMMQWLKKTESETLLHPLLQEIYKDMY
- Test: Agonist activity against PPAR delta
Readout label: EC50
Note to self: number, then unit, no commentary.

Recall the recorded EC50 for CC(C)(Oc1cccc(CCCN(Cc2ccc(C(F)(F)F)cc2C(F)(F)F)C(=O)Cc2ccc(C(F)(F)F)cc2)c1)C(=O)O with Peroxisome proliferator-activated receptor delta (Mus musculus, UniProt P35396) and state it.
19 nM

---

- Test: Mean plasma concentration at a oral dose of 3 mg/kg in rat at 0.5 hr
- Format: ADME, organism-based
- Design: dose 3 mg/kg, route oral
Readout label: concentration at 0.5 h (ng/mL)
Provide only the numeric value, understood in ng/mL.

Please give the measured concentration at 0.5 h for this molecule: CC(C)(Oc1cccc(CCCN(Cc2ccc(C(F)(F)F)cc2C(F)(F)F)C(=O)Cc2ccc(C(F)(F)F)cc2)c1)C(=O)O
373
